Molecular target: T1, MC1 receptor (UniProt Q01726 1-317, limits assumed)
T1 construct: whole, on cells; also called melanocortin receptor subtype 1; melanocortin receptor 1
T1 sequence (Q01726 whole entry): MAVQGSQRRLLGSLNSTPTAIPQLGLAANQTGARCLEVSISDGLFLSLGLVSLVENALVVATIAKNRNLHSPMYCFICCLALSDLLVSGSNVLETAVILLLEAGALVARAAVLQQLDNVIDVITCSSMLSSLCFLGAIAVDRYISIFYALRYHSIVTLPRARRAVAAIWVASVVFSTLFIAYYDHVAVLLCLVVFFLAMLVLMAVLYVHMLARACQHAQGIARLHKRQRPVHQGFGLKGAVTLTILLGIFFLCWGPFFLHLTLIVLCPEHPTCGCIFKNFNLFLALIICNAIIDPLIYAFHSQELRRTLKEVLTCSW
Assay: 125I-NDP-α-MSH displacement, BHK-MC1 membranes (Assay IV);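 note: membrane incubations stopped by filtration, retained radioactivity counted, Ki fitted by nonlinear regression to binding curves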
pKi: −log10 of the molar value. Positions of bridges follow the written chain, without caps; N, C: chain ends. Non-standard residues stand in square brackets, D forms with d. Groups on a side chain read outwards from the residue. Primed or numbered codes have the meaning given here. *: point of attachment. X2 = (2-(2-(16-(tetrazol-5-yl)hexadecanoylamino)ethoxy)ethoxy)acetyl, O=C(CCCCCCCCCCCCCCCc1nn[nH]n1)NCCOCCOCC(=O)*; X5 = NH(2-(2-(2-(17-carboxyheptadecanoylamino)ethoxy)ethoxy)ethyl), O=C(O)CCCCCCCCCCCCCCCCC(=O)NCCOCCOCCN*; X3 = (2-(2-(15-carboxypentadecanoylamino)ethoxy)ethoxy)acetyl, O=C(O)CCCCCCCCCCCCCCC(=O)NCCOCCOCC(=O)*; biscarboxymethyl = Lys(biscarboxymethyl) = Nepsilon-bis(carboxymethyl)-L-lysine; bis(carboxymethyl) = Lys(biscarboxymethyl) = N6-bis(carboxymethyl)-L-lysine; Palmitoyl(16-(5-tetrazolyl)) = O=C(CCCCCCCCCCCCCCCc1nnn[nH]1)*; biscarboxymethyl(3) = Nepsilon-bis(carboxymethyl) on Lys; Orn = NCCC[C@H](N)C(=O)O; Dab = NCC[C@H](N)C(=O)O; AEEA = NCCOCCOCC(=O)O
experimental readout: pKi

>>> numeric_result("Ac-EH[dF]RW[Orn]PPRDK(biscarboxymethyl)K(X2)-NH2 (lactam 1-6)")
5.28
>>> numeric_result("Ac-[Dab]H[dF]RWDPSSSK(biscarboxymethyl(3))SS-X5 (lactam 1-6)")
5.04
>>> numeric_result("Ac-EH[dF]RW[Dab]PPRDK(biscarboxymethyl(3))K([AEEA-Palmitoyl(16-(5-tetrazolyl))])-NH2 (lactam 1-6)")
5.47
>>> numeric_result("Ac-EH[dF]RW[Orn]PPRDK(biscarboxymethyl)K(X3)-NH2 (lactam 1-6)")
5.40
>>> numeric_result("Ac-[Orn]H[dF]RWDPSSSK(bis(carboxymethyl))SSK([AEEA-Palmitoyl(16-(5-tetrazolyl))])-NH2 (lactam 1-6)")
5.25

Data origin: patent US20130012432A1
